Biological target: T1, recombinant human B7-H3 (4Ig) protein, with His tag (human, UniProt Q5ZPR3 29-461, limits assumed)
T1 construct: Bought protein; also called human B7-H3 (4Ig)/B7-H3b protein
T1 sequence (looked up): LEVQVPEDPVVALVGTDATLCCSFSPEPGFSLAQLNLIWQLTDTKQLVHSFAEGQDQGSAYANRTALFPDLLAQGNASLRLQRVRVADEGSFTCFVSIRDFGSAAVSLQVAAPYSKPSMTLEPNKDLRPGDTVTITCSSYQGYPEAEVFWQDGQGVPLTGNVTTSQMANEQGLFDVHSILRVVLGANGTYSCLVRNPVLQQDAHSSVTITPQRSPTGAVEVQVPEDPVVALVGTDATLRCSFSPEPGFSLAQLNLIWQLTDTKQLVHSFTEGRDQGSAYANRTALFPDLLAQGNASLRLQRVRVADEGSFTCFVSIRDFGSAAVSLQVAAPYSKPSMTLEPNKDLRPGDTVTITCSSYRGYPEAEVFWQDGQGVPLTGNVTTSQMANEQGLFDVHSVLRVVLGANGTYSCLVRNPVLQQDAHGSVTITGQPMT
Assay: SPR (Biacore T200), antibody captured on Protein A chip, His-tagged antigen injected
Outcome Measure: koff (s⁻¹)
// return numeric value only (unit: s⁻¹, not printed)

Examples with their reported koff follow.
binder="10D7 (antibody, human IgG1, kappa, V domains shown, also called 10D7-WT; Ab10D7) VH: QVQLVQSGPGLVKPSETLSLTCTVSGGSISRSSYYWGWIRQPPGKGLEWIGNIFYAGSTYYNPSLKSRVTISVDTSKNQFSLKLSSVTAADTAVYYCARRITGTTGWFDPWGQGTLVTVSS VL: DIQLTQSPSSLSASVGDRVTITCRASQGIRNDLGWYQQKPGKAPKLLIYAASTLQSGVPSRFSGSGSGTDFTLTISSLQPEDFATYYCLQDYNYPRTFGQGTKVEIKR" assay_result=0.000291
binder="10F5 (antibody, human IgG1, kappa, V domains shown, also called Ab10F5) VH: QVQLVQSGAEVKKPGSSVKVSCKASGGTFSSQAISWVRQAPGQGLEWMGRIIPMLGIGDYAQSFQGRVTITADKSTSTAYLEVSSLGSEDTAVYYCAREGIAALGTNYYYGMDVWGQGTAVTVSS VL: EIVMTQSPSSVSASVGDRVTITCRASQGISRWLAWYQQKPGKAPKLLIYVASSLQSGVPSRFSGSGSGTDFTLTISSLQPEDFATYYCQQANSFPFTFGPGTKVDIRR" assay_result=0.00011
binder="6B5 (antibody, human IgG1, kappa, V domains shown, also called 6B5-WT; Ab6B5) VH: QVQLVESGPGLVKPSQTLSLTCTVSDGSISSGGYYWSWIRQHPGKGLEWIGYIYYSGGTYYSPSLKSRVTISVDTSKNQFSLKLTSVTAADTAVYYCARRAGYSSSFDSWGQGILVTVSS VL: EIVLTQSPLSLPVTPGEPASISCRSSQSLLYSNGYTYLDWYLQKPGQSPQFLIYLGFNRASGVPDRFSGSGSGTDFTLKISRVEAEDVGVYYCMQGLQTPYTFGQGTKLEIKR" assay_result=0.00031

Moving on to another binder below.
**Query** // query koff value for entry Enoblituzumab (antibody, human IgG1, kappa, V domains shown, Humanized anti-B7-H3 antibody of MacroGenics with optimised Fc, used as the positive control; also called AbEno; enoblituzumab-IgG1-Mut) VH: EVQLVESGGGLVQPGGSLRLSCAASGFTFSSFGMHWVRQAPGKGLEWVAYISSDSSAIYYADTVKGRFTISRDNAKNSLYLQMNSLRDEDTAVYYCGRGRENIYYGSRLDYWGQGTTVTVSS VL: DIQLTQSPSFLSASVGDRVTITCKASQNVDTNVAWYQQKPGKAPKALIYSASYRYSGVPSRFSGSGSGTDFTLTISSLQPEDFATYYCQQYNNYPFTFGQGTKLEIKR
**Result** 0.000239

meta.source: patent US20260125477A1
